- TARGET OR SYSTEM: β-secretase(BACE) (Homo sapiens, UniProt P56817)
- Construct: purchased Panvera
- Sequence (P56817 46-501): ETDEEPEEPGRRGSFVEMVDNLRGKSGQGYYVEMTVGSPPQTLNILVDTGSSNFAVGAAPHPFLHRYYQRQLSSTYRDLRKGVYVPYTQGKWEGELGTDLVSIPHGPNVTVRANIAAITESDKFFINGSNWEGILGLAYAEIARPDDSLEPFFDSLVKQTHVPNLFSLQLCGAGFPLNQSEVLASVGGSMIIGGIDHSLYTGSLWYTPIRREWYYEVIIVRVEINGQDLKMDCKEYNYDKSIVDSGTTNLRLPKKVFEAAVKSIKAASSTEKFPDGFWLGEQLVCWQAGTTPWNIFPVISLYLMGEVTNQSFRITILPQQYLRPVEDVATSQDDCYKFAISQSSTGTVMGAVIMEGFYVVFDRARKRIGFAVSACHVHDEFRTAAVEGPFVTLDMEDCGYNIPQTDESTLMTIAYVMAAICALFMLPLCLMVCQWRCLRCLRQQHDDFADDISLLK
- METHOD DESCRIPTION: BACE Assay-1 (MCA-substrate, IC50)
- Format: biochemical
- CONDITION DESCRIPTION: procedure of Example 158; read-out: IC50 μM (158)
Checkbox rule: IC50 lower than 0.1 µM = TRUE; IC50 not lower than 0.1 µM = FALSE.

| COMPOUND | TARGET OR SYSTEM | CAT |
| --- | --- | --- |
| CN(C(=O)c1cccc(CN2Cc3cc(Sc4ccccc4)ccc3N=C2N)c1)C1CCCCC1 | β-secretase(BACE) (Homo sapiens, UniProt P56817) | TRUE |
| CCOc1ccccc1-c1ccc2c(c1)CN(Cc1cccc(C(=O)N(C)C3CCCCC3)c1)C(N)=N2 | β-secretase(BACE) (Homo sapiens, UniProt P56817) | TRUE |
| CCCN1Cc2cc(Oc3cccc(NS(=O)(=O)c4ccc(Br)s4)c3)ccc2N=C1N | β-secretase(BACE) (Homo sapiens, UniProt P56817) | FALSE |
| NC1=Nc2ccc(Oc3ccccc3)cc2CN1CCCCC(=O)N(C1CCCCC1)C1CCCCC1 | β-secretase(BACE) (Homo sapiens, UniProt P56817) | FALSE |
| CCCCS(=O)(=O)Nc1cccc(Oc2ccc3c(c2)CN(CCC)C(N)=N3)c1 | β-secretase(BACE) (Homo sapiens, UniProt P56817) | FALSE |

### Prompt In the record for CC(C)(C)OC(=O)NCC(c1ccccc1)N1Cc2cc(Oc3ccccc3)ccc2N=C1N (stereo not shown) , is IC50 less than 0.1 µM?
### Response FALSE

### Prompt Quick check: IC50 of "CN(CCc1ccccc1)C(=O)CCN1Cc2cc(C(=O)c3ccccc3)ccc2N=C1N" under 0.1 µM?
### Response FALSE

### Prompt Take the compound "CN(C(=O)CCCCN1Cc2cc(Oc3cccc(NS(=O)(=O)c4ccccc4)c3)ccc2N=C1N)C1CCCCC1" and say whether its IC50 is less than 0.1 µM.
### Response TRUE

### Prompt Below 0.1 µM on IC50? Entry "Cc1noc(C)c1-c1ccc2c(c1)CN(Cc1cccc(C(=O)N(C)C3CCCCC3)c1)C(N)=N2"
### Response FALSE

### Prompt is_below(IC50, 0.1 µM) for "CCCN1Cc2cc(-c3cccc(NS(=O)(=O)c4ccccc4)c3)ccc2N=C1N" ?
### Response FALSE

### Prompt Here's an entry: "CN(CCN1Cc2cc(Oc3ccccc3)ccc2N=C1N)C(=O)OC(C)(C)C" . Is its IC50 below 0.1 µM?
### Response FALSE

### Prompt Say whether its IC50 is strictly beneath 0.1 µM. Entry: NC1=Nc2ccc(Oc3ccccc3)cc2CN1CCC(=O)NC1C2CC3CC(C2)CC1C3 (stereo not shown)
### Response TRUE

### Prompt Does the reported IC50 of "CCCN1Cc2cc(Oc3cccc(NS(=O)(=O)c4ccccc4S(C)(=O)=O)c3)ccc2N=C1N" stay below 0.1 µM?
### Response FALSE

### Prompt Input "CCCN1Cc2cc(Oc3cccc(NC(=O)OCc4ccccc4)c3)ccc2N=C1N" ; condition: IC50 strictly below 0.1 µM. Does it hold?
### Response FALSE

### Prompt In plain terms, does "CCCN1Cc2cc(Oc3cccc(NS(=O)(=O)c4cccc5c(N(C)C)cccc45)c3)ccc2N=C1N" come in under 0.1 µM for IC50?
### Response FALSE
